Reference source for all entries: patent US8541455B2

test system: VEGF secretion by Hep3B cells; assay: Measurement of the secretion of VEGF by Hep3B hepatocytes (ELISA on supernatant); format: cell-based; details: Homo sapiens, 18 hours incubation under normoxia, VEGF in supernatant, 50% of the maximum response of this same compound
observedProperty: EC50
// unit must come after the numeric part

Answered examples (2):
>  <smilesRepr>
CCN(c1ccccc1)S(=O)(=O)c1ccc(-n2[nH]c(C(F)(F)F)c(Cc3ccccc3)c2=O)nc1

>  <targetOfAssay>
VEGF secretion by Hep3B cells

>  <EC50>
1.3 µM

$$$$
>  <smilesRepr>
CCN(c1ccccc1)S(=O)(=O)c1ccc(-n2[nH]c(C)c(C3(c4ccccc4)CC3)c2=O)nc1

>  <targetOfAssay>
VEGF secretion by Hep3B cells

>  <EC50>
0.9 µM

$$$$

Could I get EC50 for every one of these entries?
1. CCN(c1ccccc1)S(=O)(=O)c1ccc(-n2[nH]c(COC)c(Cc3ccccc3)c2=O)nc1
2. CCN(c1ccccc1)S(=O)(=O)c1ccc(-n2[nH]c(C)c(C(C)(C)c3ccccc3)c2=O)nc1
3. CCN(c1ccccc1)S(=O)(=O)c1ccc(-n2[nH]c(C)c(Cc3ccccc3)c2=O)nc1
4. CCN(c1ccccc1)S(=O)(=O)c1ccc(-n2[nH]c(C)c(Cc3c(F)cccc3Cl)c2=O)nc1

[A]
1: 1.2 µM; 2: 1.3 µM; 3: 1.3 µM; 4: 1.1 µM

* * *

Counter-ions that a name gives are not always drawn.
// returns No unless melting point is strictly below 90 °C, in which case Yes

Below are worked cases with known answers.
>  <molecule>
CCN(c1ccccc1)S(=O)(=O)c1ccc(-n2[nH]cc(Cc3cncc(OC)c3)c2=O)nc1.Cl

>  <group>
No

$$$$
>  <molecule>
CCN(c1ccccc1)S(=O)(=O)c1ccc(-n2[nH]cc(CC(=O)N(C)C)c2=O)nc1

>  <group>
No

$$$$
>  <molecule>
CN(C1CCCC1)S(=O)(=O)c1ccc(-n2[nH]cc(C(CC(=O)NCC(F)(F)F)c3ccccc3)c2=O)nc1 (stereo not shown)

>  <group>
Yes

$$$$
>  <molecule>
Cc1[nH]n(-c2ccccn2)c(=O)c1Cc1ccc(C(F)(F)F)cc1

>  <group>
No

$$$$
>  <molecule>
CCc1[nH]n(-c2ccccn2)c(=O)c1Cc1ccccc1

>  <group>
Yes

$$$$
>  <molecule>
O=c1c(Cc2ccccc2)c[nH]n1-c1ccc(S(=O)(=O)N(C[C@H](O)CO)C2CCCC2)cn1

>  <group>
No

$$$$

[Q] Decide: melting point of CC(C)(C)OC(=O)c1ccc(-n2[nH]cc(Cc3cccnc3)c2=O)nc1 (as salt: HCl) strictly below 90 °C?
[A] No
